Origin of measurements: patent US10086090B2

- METHOD_SUMMARY: Observation of distribution in rat body (caudate vein administration, PDE camera)
- Type: in vivo
- MEASUREMENT_CONTEXT: male, Wistar, intravenous, 0.1 mL of 1 mM solution; rat dorsal region of foot, 1 mM 0.1 mL caudate vein; read-out: t1/2 (time at which the value reached a half of the Imax value)
ENDPOINT_NAME: half-life

>>> value_reported("CC1(C)C(/C=C/C=C/C=C/C=C2\\N(CCCCS(=O)(=O)O)c3ccc4ccccc4c3C2(C)C)=[N+](CCCCS(=O)(=O)[O-])c2ccc3ccccc3c21")
"2.3 min"
